Recorded measurements of IC50, one per entry
# Tested on: KRas-mediated phosphorylation of ERK in MKN1 cells
# test-summary: Inhibition of KRas-mediated phosphorylation of ERK (Cisbio HTRF pERK), MKN1 cells
# Assay type: cell-based
# stated-conditions: Homo sapiens, MKN-1

{"compound": "Oc1cc(Cl)c(C2CC2)c(-c2ncc3c(N4CCC[C@]5(C4)C[C@H](O)C5)nc(OCC45CCCN4CCC5)nc3c2F)c1 [Example 742]", "tested-system": "KRas-mediated phosphorylation of ERK in MKN1 cells", "IC50 [nM]": 624}
{"compound": "CCc1c(F)ccc2cc(O)cc(-c3ncc4c(N5CCCC6(CC(=O)N6)C5)nc(OC[C@]56CCCN5[C@H](COC(=O)N(C)C)CC6)nc4c3F)c12 (some centres unmarked) [Example 715]", "tested-system": "KRas-mediated phosphorylation of ERK in MKN1 cells", "IC50 [nM]": 43}
{"compound": "CCc1c(F)ccc2cc(O)cc(-c3ncc4c(N5C[C@@H]6OCCN[C@@H]6C5)nc(OC[C@@]56CCCN5C[C@H](F)C6)nc4c3F)c12 [Example 555]", "tested-system": "KRas-mediated phosphorylation of ERK in MKN1 cells", "IC50 [nM]": 4020}
{"compound": "C[C@@]1(O)CCCN(c2nc(OC[C@@]34CCCN3C[C@H](F)C4)nc3c(F)c(-c4ccc(F)c5sc(N)c(C#N)c45)ncc23)C1 [Example 912]", "tested-system": "KRas-mediated phosphorylation of ERK in MKN1 cells", "IC50 [nM]": 504}
{"compound": "CCc1c(F)ccc2cc(O)cc(-c3ncc4c(N5C[C@@H]6C[C@H](C5)[C@H](O)C6)nc(OCC56CCCN5CC(F)(F)C6)nc4c3F)c12 (some centres unmarked) [Example 924]", "tested-system": "KRas-mediated phosphorylation of ERK in MKN1 cells", "IC50 [nM]": 14}
{"compound": "CCc1c(F)ccc2cc(O)cc(-c3ncc4c(N5C[C@@H]6C[C@H](C5)[C@H](O)C6)nc(OC[C@@]56CCCN5C[C@H](OC)C6)nc4c3F)c12 [Example 926]", "tested-system": "KRas-mediated phosphorylation of ERK in MKN1 cells", "IC50 [nM]": 0.7}
{"compound": "CCc1c(F)ccc2cc(O)cc(-c3ncc4c(N5CCC[C@@](C)(O)C5)nc(OCC56CC5CN(C)C6)nc4c3F)c12 (some centres unmarked) [Example 827]", "tested-system": "KRas-mediated phosphorylation of ERK in MKN1 cells", "IC50 [nM]": 41}
{"compound": "CCc1c(F)ccc2cc(O)cc(-c3ncc4c(N5CCC[C@H](c6ccnn6C)CC5)nc(OC[C@@]56CCCN5C[C@H](F)C6)nc4c3F)c12 [Example 634]", "tested-system": "KRas-mediated phosphorylation of ERK in MKN1 cells", "IC50 [nM]": 2980}
{"compound": "CCc1c(F)ccc2cc(O)cc(-c3ncc4c(N5CCC(N6C(=O)CCC6=O)C5)nc(OC[C@@]56CCCN5C[C@H](F)C6)nc4c3F)c12 (some centres unmarked) [Example 615]", "tested-system": "KRas-mediated phosphorylation of ERK in MKN1 cells", "IC50 [nM]": 1530}
{"compound": "CCc1c(F)ccc2cc(O)cc(-c3ncc4c(N5CCC[C@@](C)(O)C5)nc(OCC56CCCN5CC(=C(F)F)C6)nc4c3F)c12 (some centres unmarked) [Example 792]", "tested-system": "KRas-mediated phosphorylation of ERK in MKN1 cells", "IC50 [nM]": 2}
{"compound": "CCc1c(F)ccc2cc(O)cc(-c3ncc4c(N5CCCC(N6CCCCS6(=O)=O)C5)nc(OC[C@@]56CCCN5C[C@H](F)C6)nc4c3F)c12 (some centres unmarked) [Example 664]", "tested-system": "KRas-mediated phosphorylation of ERK in MKN1 cells", "IC50 [nM]": 5}
{"compound": "CN(C)C(=O)c1cc2n(n1)CCCN(c1nc(OC[C@@]34CCCN3C[C@H](F)C4)nc3c(F)c(-c4c(C5CC5)c(Cl)cc5[nH]ncc45)ncc13)C2 [Example 882]", "tested-system": "KRas-mediated phosphorylation of ERK in MKN1 cells", "IC50 [nM]": 521}
{"compound": "CCc1c(F)ccc2cc(O)cc(-c3ncc4c(N[C@H](C)c5cc(C(=O)N(C)C)nn5C)nc(OC[C@@]56CCCN5C[C@H](F)C6)nc4c3F)c12 [Example 651]", "tested-system": "KRas-mediated phosphorylation of ERK in MKN1 cells", "IC50 [nM]": 546}
{"compound": "CCc1c(F)ccc2cc(O)cc(-c3ncc4c(N5C[C@@H]6C[C@H](C5)[C@H](O)C6)nc(OCC56CCCN5CC(=C(F)F)C6)nc4c3F)c12 (some centres unmarked) [Example 798]", "tested-system": "KRas-mediated phosphorylation of ERK in MKN1 cells", "IC50 [nM]": 0.3}
{"compound": "C[C@@H]1C[C@@H]1c1c(Cl)cc(O)cc1-c1ncc2c(N3CCC[C@]4(C3)NC(=O)NC4=O)nc(OC[C@@]34CCCN3C[C@H](F)C4)nc2c1F [Example 932]", "tested-system": "KRas-mediated phosphorylation of ERK in MKN1 cells", "IC50 [nM]": 3}
{"compound": "CCc1c(F)ccc2cc(O)cc(-c3ncc4c(N5CCCC6(CCS(=O)(=O)N6)C5)nc(OC[C@@]56CCCN5C[C@H](F)C6)nc4c3F)c12 (some centres unmarked) [Example 643]", "tested-system": "KRas-mediated phosphorylation of ERK in MKN1 cells", "IC50 [nM]": 4}
{"compound": "CCc1c(F)ccc2cc(O)cc(-c3ncc4c(N5CCC[C@@]6(CCO6)C5)nc(OCC5(CN(C)C)CC5)nc4c3F)c12 [Example 700]", "tested-system": "KRas-mediated phosphorylation of ERK in MKN1 cells", "IC50 [nM]": 4}
{"compound": "CCc1c(F)ccc2cc(O)cc(-c3ncc4c(N5C[C@H]6C[C@@H](C5)C(O)C6O)nc(OC[C@@]56CCCN5C[C@H](F)C6)nc4c3F)c12 (single isomer, unassigned) [Example 570]", "tested-system": "KRas-mediated phosphorylation of ERK in MKN1 cells", "IC50 [nM]": 56}
{"compound": "CCc1c(F)ccc2cc3[nH]ncc3c(-c3ncc4c(N5C[C@@H]6C[C@H](C5)[C@H](O)C6)nc(OC[C@@]56CCCN5C[C@H](F)C6)nc4c3F)c12 [Example 825]", "tested-system": "KRas-mediated phosphorylation of ERK in MKN1 cells", "IC50 [nM]": 36}
{"compound": "CCc1c(F)ccc2cc(O)c(F)c(-c3ncc4c(N5C[C@@H]6C[C@H](C5)[C@H](O)C6)nc(OC[C@@]56CCCN5C[C@H](F)C6)nc4c3F)c12 [Example 811]", "tested-system": "KRas-mediated phosphorylation of ERK in MKN1 cells", "IC50 [nM]": 37}
{"compound": "CCc1c(F)ccc2cc(O)cc(-c3ncc4c(N5CCC[C@@](C)(O)C5)nc(OC[C@@]56CCCN5[C@H](COCC5CCC5)CC6)nc4c3F)c12 [Example 852]", "tested-system": "KRas-mediated phosphorylation of ERK in MKN1 cells", "IC50 [nM]": 5}
{"compound": "CCc1c(F)ccc2cc(O)cc(-c3ncc4c(N5CCCC6(CNS(=O)(=O)C6)C5)nc(OC[C@@]56CCCN5C[C@H](F)C6)nc4c3F)c12 (some centres unmarked) [Example 644]", "tested-system": "KRas-mediated phosphorylation of ERK in MKN1 cells", "IC50 [nM]": 10}
{"compound": "CCc1c(F)ccc2cc(O)cc(-c3ncc4c(N5C[C@@H]6C[C@H](C5)[C@H](O)C6)nc(OCC56CC(F)CN5CC(F)C6)nc4c3F)c12 (some centres unmarked) [Example 923]", "tested-system": "KRas-mediated phosphorylation of ERK in MKN1 cells", "IC50 [nM]": 9}

###

Recorded measurements of log10(IC50), one per entry
# tested-system: KRas^G12V (Homo sapiens, UniProt P01116, G12V)
# Construct: Biotinylated KRas (corresponding to amino acids 1-169, produced at Accelegan Inc.); biotin (biotinylated); purchased Accelegan Inc
# Sequence (P01116 1-169 isoform P01116-2 G12V): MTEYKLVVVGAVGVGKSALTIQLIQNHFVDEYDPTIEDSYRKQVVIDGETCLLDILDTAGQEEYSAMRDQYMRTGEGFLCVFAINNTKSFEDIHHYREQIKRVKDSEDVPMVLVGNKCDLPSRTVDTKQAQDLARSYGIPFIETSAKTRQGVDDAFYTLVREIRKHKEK
# test-summary: KRas binding assay (TR-FRET tracer displacement), KRas G12V
parameter-measured: log10(IC50) (log10 of the value in nM)

{"molecule": "Cc1cc2[nH]ncc2c(-c2ncc3c(N4CCCC5(C4)NC(=O)NC5=O)nc(OCC45CCCN4CCC5)nc3c2F)c1C (stereo not drawn) [Example 728]", "log10(IC50)": 1.36}
{"molecule": "CCc1c(F)ccc2cc(O)cc(-c3ncc4c(N5CC6CCC(C5)C6C(=O)N(C)C)nc(OC[C@@]56CCCN5C[C@H](F)C6)nc4c3F)c12 (stereo partly drawn) [Example 858]", "log10(IC50)": 0.85}
{"molecule": "Cc1cc2[nH]nnc2c(-c2ncc3c(N4CCCC5(CNS(=O)(=O)N5)C4)nc(OCC45CCCN4CCC5)nc3c2F)c1C (stereo not drawn) [Example 855]", "log10(IC50)": 1.20}
{"molecule": "Cc1cc2[nH]ncc2c(-c2ncc3c(N4CCCn5nc(C(=O)N(C)C)cc5C4)nc(OCC45CCCN4CCC5)nc3c2F)c1C [Example 730]", "log10(IC50)": 1.88}
{"molecule": "CCc1c(F)ccc2cc(O)cc(-c3ncc4c(N5CC6CCC(C5)C6CC(N)=O)nc(OC[C@@]56CCCN5C[C@H](F)C6)nc4c3F)c12 (stereo partly drawn) [Example 859]", "log10(IC50)": 1.23}
{"molecule": "O=C1NC(=O)C2(CCCN(c3nc(OC[C@@]45CCCN4C[C@H](F)C5)nc4c(F)c(-c5c6ccccc6cc6[nH]ncc56)ncc34)C2)N1 (stereo partly drawn) [Example 759]", "log10(IC50)": 0.60}
{"molecule": "CCc1c(F)ccc2cc(O)cc(-c3ncc4c(N5CC6(CO)CC(C7CC7)(C5)C6)nc(OC[C@@]56CCCN5C[C@H](F)C6)nc4c3F)c12 [Example 613]", "log10(IC50)": 4.34}
{"molecule": "CCc1c(F)ccc2cc(O)cc(-c3ncc4c(N5CCC[C@]6(CC[S@+]([O-])C6)C5)nc(OC[C@@]56CCCN5C[C@H](F)C6)nc4c3F)c12 (single isomer, unassigned) [Example 625]", "log10(IC50)": 1.00}
